# Target System: human recombinant 5-HT2C receptor (Homo sapiens (Human), UniProt P28335)
# Sequence (P28335 33-458): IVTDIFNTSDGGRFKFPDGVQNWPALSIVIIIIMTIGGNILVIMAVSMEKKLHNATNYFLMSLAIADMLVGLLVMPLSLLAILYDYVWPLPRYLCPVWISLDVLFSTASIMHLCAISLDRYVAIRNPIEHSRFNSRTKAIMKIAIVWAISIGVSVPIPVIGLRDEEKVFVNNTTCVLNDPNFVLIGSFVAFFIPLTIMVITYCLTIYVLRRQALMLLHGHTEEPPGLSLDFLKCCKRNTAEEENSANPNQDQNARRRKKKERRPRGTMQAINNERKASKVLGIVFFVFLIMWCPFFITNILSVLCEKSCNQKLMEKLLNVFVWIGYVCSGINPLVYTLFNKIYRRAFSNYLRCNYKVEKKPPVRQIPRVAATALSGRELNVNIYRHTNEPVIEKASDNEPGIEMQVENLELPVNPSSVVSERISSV
# Test Name: 5-HT2C receptor binding inhibition test ([3H]-Mesulergine)
pKi: −log10 of the molar value.
Reported Property: pKi

(Q) State its pKi for this molecule: "CC(C)COc1ccc(CN(Cc2ccn(C)n2)C(=O)NC23CCN(CC2)CC3)cc1"
(A) 5.30 to 7.00

(Q) State its pKi for this molecule: "CC(C)COc1ccc(CN(Cc2ccn(C)n2)C(=O)N[C@H]2C[C@H]3CC[C@@H](C2)N3C)cc1"
(A) 7.00 to 8.00

====

# Target System: human recombinant 5-HT2A receptor (Homo sapiens (Human))
# Sequence (P28223 whole entry): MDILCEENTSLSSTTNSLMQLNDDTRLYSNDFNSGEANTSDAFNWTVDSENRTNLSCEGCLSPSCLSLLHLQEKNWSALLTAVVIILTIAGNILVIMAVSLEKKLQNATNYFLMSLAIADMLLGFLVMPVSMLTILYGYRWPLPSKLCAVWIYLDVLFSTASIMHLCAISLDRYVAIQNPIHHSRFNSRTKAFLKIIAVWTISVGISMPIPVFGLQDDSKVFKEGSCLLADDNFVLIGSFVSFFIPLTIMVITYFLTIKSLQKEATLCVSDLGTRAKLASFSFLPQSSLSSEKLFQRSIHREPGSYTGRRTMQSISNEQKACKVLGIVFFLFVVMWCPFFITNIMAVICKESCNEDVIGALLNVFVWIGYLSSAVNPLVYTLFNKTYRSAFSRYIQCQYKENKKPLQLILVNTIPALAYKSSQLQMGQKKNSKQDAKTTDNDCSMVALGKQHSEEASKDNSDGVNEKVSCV
# Test Name: 5-HT2A receptor binding inhibition test ([3H]-Ketanserin)
# Measurement Context: Jump-In HEK cell membrane, read-out: h-5-HT2A Ki
pKi: −log10 of the molar value.
Reported Property: pKi

(Q) State its pKi for this compound: "CC(C)COc1ccc(CN(Cc2ccn(C)n2)C(=O)OC2CCN(C)CC2)cc1"
(A) 7.00 to 8.00

(Q) State its pKi for this compound: "CC(C)COc1ccc(CN(Cc2cocn2)C(=O)NC2CCN(C)CC2)cc1"
(A) > 8.00

(Q) State its pKi for this compound: "CCCc1ccc(CN(Cc2coc(C)n2)C(=O)NC2CCN(C)CC2)cc1"
(A) > 8.00

(Q) State its pKi for this compound: "CC(C)COc1ccc(CN(Cc2ccn(C)n2)C(=O)NC2CCN(CC3CCC3)CC2)cc1"
(A) > 8.00

(Q) State its pKi for this compound: "CC(C)COc1ccc(CN(Cc2ccc(F)cn2)C(=O)N[C@H]2CCN(C)C[C@H]2F)cc1"
(A) > 8.00

(Q) State its pKi for this compound: "Cc1nc(CN(Cc2ccc(OCC(C)C)c(F)c2)C(=O)NC2CCN(C)CC2)co1"
(A) > 8.00

(Q) State its pKi for this compound: CCCCOc1ccc(CN(Cc2coc(C)n2)C(=O)C(F)C2CCN(C)CC2)cc1F (racemic)
(A) > 8.00

(Q) State its pKi for this compound: "CN1CCC(NC(=O)N(Cc2ccc3c(c2)OCO3)Cc2ccn(C)n2)CC1"
(A) 7.00 to 8.00

(Q) State its pKi for this compound: "CC(C)COc1ccc(CN(Cc2ccn(C)n2)C(=O)N[C@H]2[C@@H]3CN(C)C[C@@H]32)cc1"
(A) 7.00 to 8.00

(Q) State its pKi for this compound: "COc1ccc(CN(Cc2ccn(C)n2)C(=O)NC2CCN(C)CC2)c(F)c1"
(A) 7.00 to 8.00

(Q) State its pKi for this compound: "COc1ccc(CN(Cc2ccc(F)cn2)C(=O)NC2CCN(C)CC2)cc1"
(A) > 8.00

(Q) State its pKi for this compound: "CC(C)Oc1ccc(CN(Cc2ccn(C)n2)C(=O)NC2CCN(C)CC2)cc1"
(A) 7.00 to 8.00

(Q) State its pKi for this compound: "CC(C)COc1ccc(CN(Cc2ccn(C)n2)C(=O)N[C@@H]2C[C@H]3CC[C@@H](C2)N3C)cc1"
(A) 7.00 to 8.00

(Q) State its pKi for this compound: "COc1ccc(CN(Cc2ccn(C)n2)C(=O)NC2CCN(C)CC2)cc1C"
(A) 7.00 to 8.00

(Q) State its pKi for this compound: CC(C)COc1ccc(CN(Cc2ccn(C)n2)C(=O)NC2CC3CC2CN3C)cc1 (centres unmarked)
(A) > 8.00

(Q) State its pKi for this compound: "Cc1cc(CN(Cc2ccc(OCC(C)C)cc2)C(=O)OC2CCN(C)CC2)nn1C"
(A) 7.00 to 8.00

(Q) State its pKi for this compound: "Cc1nc(CN(Cc2ccc(OCC(C)C)cc2)C(=O)N[C@H]2CCN(C)C[C@H]2F)co1"
(A) > 8.00
